Reported self-cleavage by item:
B1: Twister Ribozyme (parent)
chain: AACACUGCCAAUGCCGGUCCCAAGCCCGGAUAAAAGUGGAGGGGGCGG

Variants of: B1
Assay: self-cleavage, relative activity (ratio to wild type); higher = more cleavage; co-transcriptional

A35U A40C ... 0.195
A1C G28A ... 0.174
C21A G45U ... 0.121
A23G G48C ... 0.516
A4G A33U ... 0.858
U12G A40G ... 0.163
U12C G42U ... 0.331
G28A A40U ... 0.125

Now for a further variant.
Enquiry: Name the recorded self-cleavage for G17C C21A .
Return: 0.0572
